Measured GI50, listed per entry for reference.
test system: BT-549; assay: NCI tumour cell line growth inhibition, 48 h
Activity calls are given as the source filed them. No stated cut-off is given here; in the data, active = GI50 up to about 1.1 µM and inactive = higher.

| compound | GI50 |
| --- | --- |
| CC1(c2sccc2Cl)CC(c2sccc2Cl)=C(C#N)C(=C(C#N)C#N)N1 (stereo not given) | 17.8 µM (inactive) |
| Br/C(=N\N=c1/nn[nH][nH]1)c1ccncc1 | > 100 µM (inactive) |
| COc1ccc(N2C(=O)C3c4[nH]c5ccc(OCc6ccccc6)cc5c4C4CCC(c5ccccc5)CC4C3C2=O)cc1 (stereo not given) | 4.55 µM (inactive) |
| Nn1c(CCCCCCCCc2nnc(COc3ccc(Cl)cc3)n2N)nnc1COc1ccc(Cl)cc1 | > 100 µM (inactive) |
| COCCOC(=O)c1c(C)[n+]([O-])c2cc(Cl)c(Cl)cc2[n+]1[O-] | 19.1 µM (inactive) |
| Nc1ccc2nc(N)n[n+]([O-])c2c1 | > 100 µM (inactive) |
| CC/C(Cl)=N\OC(=O)Nc1ccc(C#N)cc1 | 15.1 µM (inactive) |
| Cc1cccc(-c2cc(O)c3cccnc3n2)c1 | > 100 µM (inactive) |
| COc1ccc(-c2nc3cc(F)ccc3s2)cc1O | 17.2 µM (inactive) |
| COc1cc2c(c(OC)c1OC)-c1c(cc3c(c1OC)OCO3)CC(C)C(C)(O)C2OC(=O)c1ccccc1 (stereo not given) | 56.1 µM (inactive) |

###

system: IGROV-1; assay: NCI tumour cell line growth inhibition, 48 h
Active and inactive are the calls of the source. Rule as the data show it: active = GI50 up to about 1.1 µM and inactive = higher.
Labels: active, inactive

| compound | experimentalTarget | group |
| --- | --- | --- |
| N#CCCc1nc2ccc(Br)cc2c(=O)n1CCO | IGROV-1 | inactive |
| CC(C)(C)C(=O)C1CC(=O)c2ccccc2C1=O (centres undefined) | IGROV-1 | inactive |
| CC(C)(CO)N1CCN(C(S)=Nc2ccccc2)CC1 | IGROV-1 | inactive |
| CC1C(OS(=O)(=O)c2ccc3nc(S)sc3c2)CC2C3(C)CCC2(C(C)C(=O)O)C(O)C13 (centres undefined) | IGROV-1 | inactive |
| CC1CN=C(N(C(=O)Nc2ccc(Cl)cc2)c2cccc(Cl)c2)S1 (centres undefined) | IGROV-1 | inactive |
| O=C1NN(c2ccccc2)C(=O)C2C3c4ccccc4C(c4ccccc43)C12 (centres undefined) | IGROV-1 | inactive |
| O=C(O)Cn1ccc(=O)c2c([N+](=O)[O-])cccc21 | IGROV-1 | inactive |
| CC1=NN(c2cccc(Cl)c2)C2(C1=Cc1ccc(N(C)C)cc1)C(Cl)C(=O)N2c1nc2ccccc2s1 (centres undefined) | IGROV-1 | inactive |
| C=CCC12CCC(=O)C=C1CCC1(C2)OCCO1 (centres undefined) | IGROV-1 | inactive |
| CC(=O)NC(c1nc2cc(C)c(C)cc2[nH]1)c1nc2cc(C)c(C)cc2[nH]1 | IGROV-1 | inactive |
| O=C1c2c(F)c(F)c(F)c(F)c2SC2=NCCN12 | IGROV-1 | inactive |
| N#CC1C2CCC3(CC2CCN1C(=O)c1ccccc1)OCCO3 (centres undefined) | IGROV-1 | inactive |
| CS(=O)(=O)C(=Cc1ccccc1Cl)S(C)(=O)=O | IGROV-1 | inactive |
| COc1ccc(N2C(=O)C3c4[nH]c5ccc(OCc6ccccc6)cc5c4C4CCC(c5ccccc5)CC4C3C2=O)cc1 (centres undefined) | IGROV-1 | inactive |
| C=C1Cc2cc(OC)c(OC)c(OC)c2-c2ccc(SC)c(=O)cc21 | IGROV-1 | active |
| C=CCc1c(Cl)nc(Cl)nc1Cl | IGROV-1 | active |
| CNC(=O)OCc1c(COC(=O)NC)c(-c2ccc(-c3ccccc3)cc2)n(C)c1C | IGROV-1 | inactive |
| OCCSCCCSCCO | IGROV-1 | inactive |
| Oc1ccc2ccccc2c1/N=N/c1ccc(F)cc1 | IGROV-1 | inactive |
| O=C1NC(=O)C2C(=O)NC(=O)C1C2(c1ccccc1)c1cc[nH]c1 (centres undefined) | IGROV-1 | inactive |
| O=P1(Oc2ccccc2)NCc2ncccc2O1 (centres undefined) | IGROV-1 | inactive |
| Nn1c(CCCCCCCCc2nnc(COc3ccc(Cl)cc3)n2N)nnc1COc1ccc(Cl)cc1 | IGROV-1 | inactive |
| Cn1c(-c2cccs2)cc(-c2cccs2)c1-c1ccco1 | IGROV-1 | inactive |
| COc1ccc(C(C#N)Cc2cc(OC)c(OC)c(OC)c2)cc1 (centres undefined) | IGROV-1 | inactive |
| Cc1cc(N(CCC#N)CCC#N)ccc1/C=C1N=C(/C=C\c2ccccc2)N(NC(=O)CC(=O)Nc2ccccc2Cl)C\1=O | IGROV-1 | inactive |
| CC(=O)OC1CC2(c3ccccc3)C(=O)c3ccccc3N2O1 (centres undefined) | IGROV-1 | inactive |
| CCCN(CCC)C1CCc2c(ccc3cc[nH]c23)C1 (centres undefined) | IGROV-1 | inactive |
| O=C(/C=C/c1ccc(-c2ccccc2)cc1)c1ccccc1 | IGROV-1 | inactive |
| [N-]=[N+]=NC1CC(n2ccc(N)nc2=O)OC1COP(=O)(O)OP(=O)(O)OP(=O)(O)O (centres undefined) | IGROV-1 | inactive |
| COC(=O)C1(C(=O)OC)CC(=O)c2c(OC(=O)c3cccc(OC)c3C#N)ccc(OC(=O)c3cccc(OC)c3C#N)c2C1 | IGROV-1 | inactive |
| O=[N+]([O-])c1cccc(-c2ncc3c(n2)-c2ccccc2C3)c1 | IGROV-1 | inactive |
| N#CC1=C(N)OC(c2ccc([N+](=O)[O-])cc2)C1(C#N)C#N (centres undefined) | IGROV-1 | inactive |
| CCOC(=O)/C=C(/OCC)[C@@H]1C(C(=O)c2ccc(Cl)cc2)[C@H]1/C(=C\C(=O)OCC)OCC (some centres undefined) | IGROV-1 | inactive |
| C#CCC(O)c1ccccc1C(O)CC#C (centres undefined) | IGROV-1 | inactive |
| COC(=O)CCc1ccc2c(c1)CC1(C2)Cc2ccc3c(c2C1)CCC3 (centres undefined) | IGROV-1 | inactive |
| O=C1CC(Cl)c2c1csc2Br (centres undefined) | IGROV-1 | inactive |
| CC(C)(C)C(=O)O[C@@H]1COC2C(O)COC21 (some centres undefined) | IGROV-1 | inactive |
| CNc1ncnc2c1cnn2COCC(O)CO (centres undefined) | IGROV-1 | inactive |
| OCC1OC(O[C@H]2CN3[C@H](O)[C@@H](O)[C@H](O)[C@H]3C2O)C(O)C(O)C1O (some centres undefined) | IGROV-1 | inactive |
